Kindly supply the reported IC50 values for the records listed here.
- Tested on: endogenous cathepsin activity (cathepsin L/B) in lung cancer A549 cells
- experiment-notes: Cathepsin inhibition in intact A549 cells, residual activity labeled with GB123
- Format: cell-based
- reported-conditions: 1 hour at 37° C., FIG. 9B
- Experimental: The ability of MGB to penetrate cells and inhibit endogenous cathepsin activity was tested in lung cancer A549 cells. This model (lung cells) was chosen since corona virus is known to infect the respiratory system. Intact cells were treated with inhibitors and the residual activity was determined by GB123. Inhibition was detected on SDS-PAGE Potent inhibitors reduce the residual activity and as a result, a reduction in fluorescently labeled cathepsins is seen (FIG. 9A). […]
Answers are plain numbers, in nM.

Cc1cccc(C)c1C(=O)OCC(=O)[C@H](CCCCN)NC(=O)[C@H](Cc1ccccc1)NC(=O)[C@H](Cc1ccccc1)NC(=O)CCCCCN1C(=O)C=CC1=O; 1900

Query string: Item: Cc1cccc(C)c1C(=O)OCC(=O)[C@H](CCCCN)NC(=O)[C@H](Cc1ccccc1)NC(=O)OCc1ccccc1 Test system: endogenous cathepsin activity (cathepsin L/B) in lung cancer A549 cells Read-out: IC50 Value: ?
Result string: 6

Where these numbers come from: patent US20250170097A1
